Each recorded value in this set is attributed to patent US20160053014A1.

Biological target: T1, human CXCR5 (human, UniProt P32302 1-372)
T1 construct: whole, on cells; also called hu-CHO; CHO-CXCR5 cells
T1 sequence (looked up): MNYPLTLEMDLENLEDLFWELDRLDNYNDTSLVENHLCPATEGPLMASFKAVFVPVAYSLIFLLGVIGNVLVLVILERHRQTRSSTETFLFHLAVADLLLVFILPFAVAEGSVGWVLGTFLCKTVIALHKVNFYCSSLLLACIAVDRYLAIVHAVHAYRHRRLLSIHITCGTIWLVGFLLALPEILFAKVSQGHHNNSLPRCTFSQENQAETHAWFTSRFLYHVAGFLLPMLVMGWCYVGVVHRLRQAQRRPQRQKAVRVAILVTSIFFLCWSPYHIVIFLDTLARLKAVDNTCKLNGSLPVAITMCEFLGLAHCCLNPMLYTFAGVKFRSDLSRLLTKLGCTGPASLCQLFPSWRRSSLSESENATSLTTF
Experiment: flow cytometry on CHO-CXCR5 cells, IgG titration
Give measured EC50 for each item. Keep answers brief.
Output spec: scalar in nM, unitless text.

Incoming: Give recorded EC50. 15G11 (antibody, V domains shown, tested as human IgG) VH: QVQLVQSGGGVVQPGGSLRLSCAASGFAFNRYGMHWVRQAPGQGLEWVAVISYDGSLKYYADSVKGRFTISRDNSNNTLYLQMNSLSADDTAVYYCAKGGAALDSWGQGTLVTVSS VL: DVVMTQSPLSSPVTLGQPASISCRSSQSLVHSDGTTYLSWLQQRPGQPPRLLIYKISNRFSGVPDRFSGSGAGTDFTLKISRVEAEDVGVYYCMQTTQFPPMFGQGTKVEIK
Outgoing: 0.4

Incoming: Give recorded EC50. 12G10 (antibody, V domains shown, tested as human IgG) VH: EVQLVESGGGVVQPGRSLRLSCAASGFTFSSYAMHWVRQAPGKGLEWVAVISYDGSNKYYADSVKGRFTISRDNSKNTLYLQMNSLRAEDTAVYYCARIAVAGTHFDYWGQGTLVTVSS VL: SYELMQPPSVSGTPGQRVTISCSGSTSNVGSNTVNWYRQFPGTAPKLLIYANNQRPSGVPDRFSGSKSGTSASLAISGLQSENEADYYCAAWDDSLNGYVFGTGTKLTVL
Outgoing: 0.5

Incoming: Give recorded EC50. 14F11 (antibody, V domains shown, tested as human IgG) VH: EVQLVQSGAEVKKPGASVKVSCKASGSTFTNYYIHWVRQAPGQGLEWMGIINPSGGSIGSPQKFQGRVTMTRDTSTNTVYMELSSLRSEDTAVYYCASRSFGNDGVFDIWGQGTMVTVSS VL: LPVLTQPRSVSGSPRQSVTISCTGTSSDVGGYNYVSWYQQHPGKAPKLMIYDVSKRPSGVPDRFSGSKSGNTASLTISGLQAEDEAHYYCKSYTTSRTWVFGGGTKLTVL
Outgoing: 3.8
